System: Bacillus cereus
Assay: Antibacterial activity against clinical isolates of Bacillus cereus ATCC 11778 after 24 hrs by […]
Format: functional
Details: ATCC 11778, 24 h
Below, each entry is listed with its recorded MIC.
Your answer is read as µg/mL, so omit the unit and give the number.

CCN(CCCCOc1cc2oc3cc(OCCCCN(CC)C(C)C)c(OC)c(CC=C(C)C)c3c(=O)c2c(O)c1CC=C(C)C)C(C)C | 12.5

With those in mind, consider the next molecule.
// MIC value for CCN(C)CCCCOc1cc2oc3cc(OCCCCN(C)CC)c(OC)c(CC=C(C)C)c3c(=O)c2c(O)c1CC=C(C)C : 6.25

* * *

Tested on: Staphylococcus aureus
Assay: Antibacterial activity against clinical isolates of Staphylococcus aureus DM4001R after 24 hrs by […]
Type: functional
Label label 1 when MIC is strictly below 3 µg/mL; at or above that, label label 0.

O=c1c2ccc(OCCCCN3CCCC3)cc2oc2cc(OCCCCN3CCCC3)cc(O)c12 | label 0
CCCCN(CC)CCCCOc1cc2oc3cc(OCCCCN(CC)CCCC)c(OC)c(CC=C(C)C)c3c(=O)c2c(O)c1CC=C(C)C | label 0
CCN(CC)CCCCOc1ccc2c(=O)c3c(O)cc(OCCCCN(CC)CC)cc3oc2c1 | label 0
O=c1c2ccc(O)cc2oc2cc(O)cc(O)c12 | label 0
COc1c(OCCCCNC(=N)N)cc2oc3cc(OCCCCNC(=N)N)c(CC=C(C)C)c(O)c3c(=O)c2c1CC=C(C)C | label 0

**Query** Bench note: check whether CCN(CC)CCCCCCCCCCOc1cc2oc3cc(OCCCCCCCCCCN(CC)CC)c(OC)c(CC=C(C)C)c3c(=O)c2c(O)c1CC=C(C)C shows MIC below 3 µg/mL
**Result** label 0

**Query** Bench note: check whether COc1c(O)cc2oc3cc(O)c(CC=C(C)C)c(O)c3c(=O)c2c1CC=C(C)C shows MIC below 3 µg/mL
**Result** label 1

**Query** Bench note: check whether COc1c(OCCCCN2CCCC2)cc2oc3cc(OCCCCN4CCCC4)c(CC=C(C)C)c(O)c3c(=O)c2c1CC=C(C)C shows MIC below 3 µg/mL
**Result** label 1

**Query** Bench note: check whether CCN(C)CCCCOc1cc2oc3cc(OCCCCN(C)CC)c(OC)c(CC=C(C)C)c3c(=O)c2c(O)c1CC=C(C)C shows MIC below 3 µg/mL
**Result** label 1

**Query** Bench note: check whether COc1c(OCCCCN(C)Cc2ccccc2)cc2oc3cc(OCCCCN(C)Cc4ccccc4)c(CC=C(C)C)c(O)c3c(=O)c2c1CC=C(C)C shows MIC below 3 µg/mL
**Result** label 0

* * *

Experiment: Membrane permeabilization activity assessed as release of calcein from DOPE/DOPG liposomes at lipid:compound ratio of 8 incubated for 30 mins by fluorescence assay
Assay type: ADME
Details: 0.5 h
Outcome Measure: Activity

CCN(CC)CCCCOc1ccc2c(=O)c3c(O)cc(OCCCCN(CC)CC)cc3oc2c1 | Not Active
O=c1c2ccc(O)cc2oc2cc(O)cc(O)c12 | Not Active
COc1c(O)cc2oc3cc(O)c(CCC(C)C)c(O)c3c(=O)c2c1CCC(C)C | Not Active

* * *

Test: Hemolytic activity against New Zealand white rabbit RBC after 1 hr by microplate reader analysis
Assay type: ADME, cell-based, Oryctolagus cuniculus, Erythrocyte
Settings: rabbit red blood cells
Below, each entry is listed with its recorded HC50 at 1 h.
Your answer is read as µg/mL, so omit the unit and give the number.

Guide cases for HC50 at 1 h, answers given:
CCCN(CC)CCCCOc1cc2oc3cc(OCCCCN(CC)CCC)c(OC)c(CC=C(C)C)c3c(=O)c2c(O)c1CC=C(C)C | 63.3
COc1c(OCCCCN(C)C)cc2oc3cc(OCCCCN(C)C)c(CCC(C)C)c(O)c3c(=O)c2c1CCC(C)C | 60.7

// HC50 at 1 h value for COc1c(OCCCCNC(=N)N)cc2oc3cc(OCCCCNC(=N)N)c(CC=C(C)C)c(O)c3c(=O)c2c1CC=C(C)C : 64.1

* * *

Tested on: Staphylococcus aureus
Assay: Antibacterial activity against clinical isolates of methicillin-resistant Staphylococcus aureus DM21455 after 24 hrs by […]
Format: functional
Conditions: DM21455, 24 h
Label condition met when MIC is strictly below 6 µg/mL; at or above that, label condition not met.

Some entries whose results are on file:
COc1c(OCCCCN(C)Cc2ccccc2)cc2oc3cc(OCCCCN(C)Cc4ccccc4)c(CC=C(C)C)c(O)c3c(=O)c2c1CC=C(C)C | condition not met
CCN(CC)CCCCCCCCCCOc1cc2oc3cc(OCCCCCCCCCCN(CC)CC)c(OC)c(CC=C(C)C)c3c(=O)c2c(O)c1CC=C(C)C | condition not met
O=c1c2ccc(O)cc2oc2cc(O)cc(O)c12 | condition not met
COc1c(OCCCCN2CCCCC2)cc2oc3cc(OCCCCN4CCCCC4)c(CC=C(C)C)c(O)c3c(=O)c2c1CC=C(C)C | condition met
COc1c(OCCCCn2cccn2)cc2oc3cc(OCCCCn4cccn4)c(CC=C(C)C)c(O)c3c(=O)c2c1CC=C(C)C | condition not met

**Query** Bench note: check whether COc1c(OCCCCN(C)C)cc2oc3cc(OCCCCN(C)C)c(CC=C(C)C)c(O)c3c(=O)c2c1CC=C(C)C shows MIC below 6 µg/mL
**Result** condition met

**Query** Bench note: check whether CCN(CC)CCCCOc1cc2oc3cc(OCCCCN(CC)CC)c(OC)c(CCC(C)C)c3c(=O)c2c(O)c1CCC(C)C shows MIC below 6 µg/mL
**Result** condition not met

**Query** Bench note: check whether CCCN(CC)CCCCOc1cc2oc3cc(OCCCCN(CC)CCC)c(OC)c(CC=C(C)C)c3c(=O)c2c(O)c1CC=C(C)C shows MIC below 6 µg/mL
**Result** condition not met

**Query** Bench note: check whether CCCCN(CCCC)CCCCOc1cc2oc3cc(OCCCCN(CCCC)CCCC)c(OC)c(CC=C(C)C)c3c(=O)c2c(O)c1CC=C(C)C shows MIC below 6 µg/mL
**Result** condition not met

**Query** Bench note: check whether CCN(CCO)CCCCOc1cc2oc3cc(OCCCCN(CC)CCO)c(OC)c(CC=C(C)C)c3c(=O)c2c(O)c1CC=C(C)C shows MIC below 6 µg/mL
**Result** condition not met

* * *

Test: Hemolytic activity against New Zealand white rabbit RBC after 1 hr by microplate reader analysis
Assay type: ADME, cell-based, Oryctolagus cuniculus, Erythrocyte
Settings: rabbit red blood cells
Below, each entry is listed with its recorded HC50 at 1 h.
Your answer is read as µg/mL, so omit the unit and give the number.

// HC50 at 1 h value for COc1c(OCCCCN2CCCC2)cc2oc3cc(OCCCCN4CCCC4)c(CCC(C)C)c(O)c3c(=O)c2c1CCC(C)C : 34.8

// HC50 at 1 h value for CCCN(C)CCCCOc1cc2oc3cc(OCCCCN(C)CCC)c(OC)c(CC=C(C)C)c3c(=O)c2c(O)c1CC=C(C)C : 32.6

// HC50 at 1 h value for CCN(CC)CCCCCCCCOc1cc2oc3cc(OCCCCCCCCN(CC)CC)c(OC)c(CC=C(C)C)c3c(=O)c2c(O)c1CC=C(C)C : 53.1

// HC50 at 1 h value for COc1c(OCCCCN2CCN(CCN(C)C)CC2)cc2oc3cc(OCCCCN4CCN(CCN(C)C)CC4)c(CC=C(C)C)c(O)c3c(=O)c2c1CC=C(C)C : 35.9

// HC50 at 1 h value for COc1c(OCCCCN2CCC(O)CC2)cc2oc3cc(OCCCCN4CCC(O)CC4)c(CC=C(C)C)c(O)c3c(=O)c2c1CC=C(C)C : 36

* * *

Test: Hemolytic activity against New Zealand white rabbit RBC after 1 hr by microplate reader analysis
Assay type: ADME, cell-based, Oryctolagus cuniculus, Erythrocyte
Settings: rabbit red blood cells
Below, each entry is listed with its recorded HC50 at 1 h.

Guide cases for HC50 at 1 h, answers given:
O=c1c2ccc(OCCCCN3CCCC3)cc2oc2cc(OCCCCN3CCCC3)cc(O)c12 | > 200 µg/mL
COc1c(OCCCCN2C(=O)c3ccccc3C2=O)cc2oc3cc(OCCCCN4C(=O)c5ccccc5C4=O)c(CC=C(C)C)c(O)c3c(=O)c2c1CC=C(C)C | > 200 µg/mL

// HC50 at 1 h value for CCN(CCCCOc1cc2oc3cc(OCCCCN(CC)C(C)C)c(OC)c(CC=C(C)C)c3c(=O)c2c(O)c1CC=C(C)C)C(C)C : 54.6 µg/mL

// HC50 at 1 h value for CCN(CC)CCCCOc1cc2oc3cc(OCCCCN(CC)CC)c(OC)c(CC=C(C)C)c3c(=O)c2c(OCCCCN(CC)CC)c1CC=C(C)C : > 200 µg/mL

// HC50 at 1 h value for CCCCCN(C)CCCCOc1cc2oc3cc(OCCCCN(C)CCCCC)c(OC)c(CC=C(C)C)c3c(=O)c2c(O)c1CC=C(C)C : > 200 µg/mL

// HC50 at 1 h value for CCCN(CCC)CCCCOc1cc2oc3cc(OCCCCN(CCC)CCC)c(OC)c(CC=C(C)C)c3c(=O)c2c(O)c1CC=C(C)C : > 200 µg/mL

Source of measurements: ChEMBL document CHEMBL3751813
